B1: library; a variant is named by its letters at N, in order (parent)
chain: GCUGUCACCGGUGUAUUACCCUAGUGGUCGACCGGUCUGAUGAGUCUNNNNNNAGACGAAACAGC

# Variants of: B1
# ASSAY DETAILS: normalized RNA/DNA level without ligand (relative to sTRSVctl = 100) (log10 (% of sTRSVctl)); ligand: hypoxanthine (xanthine aptamer); higher = less ribozyme self-cleavage, higher mRNA level
# PARTICULARS: HEK293T, reporter: mCherry (pCS4076), ligand present: no
METRIC: normalized RNA/DNA level without ligand (log10)
I'd appreciate a reply containing only the number, no unit.

The examples below pair each entry with its known result.
* GCUGUCACCGGUGUAUUACCCUAGUGGUCGACCGGUCUGAUGAGUCUCCCCAAAGACGAAACAGC [CCCCAA] | 1.78
* GCUGUCACCGGUGUAUUACCCUAGUGGUCGACCGGUCUGAUGAGUCUCCGGCCAGACGAAACAGC [CCGGCC] | 2
* GCUGUCACCGGUGUAUUACCCUAGUGGUCGACCGGUCUGAUGAGUCUCGGAACAGACGAAACAGC [CGGAAC] | 1.51

Shift focus to the following entry.
Lookup: Dear colleague, please send me the reported normalized RNA/DNA level without ligand (log10) for GCUGUCACCGGUGUAUUACCCUAGUGGUCGACCGGUCUGAUGAGUCUCGUUAAAGACGAAACAGC [CGUUAA] when you can.
Found: 1.62

The origin of these recorded values is the supplement of paper PMC6757056.
